The entries below are paired with their reported Bliss excess.
Test system: PCI-30 (Head and Neck Carcinoma)
Experiment: Bliss excess, mean over the matrix (fraction); higher = more synergy

compound	Bliss excess
CN(CCO)CC[C@H](CSc1ccccc1)Nc1ccc(S(=O)(=O)NC(=O)c2ccc(N3CCC([C@@H](O)c4ccccc4-c4ccc(Cl)cc4)CC3)cc2)cc1S(=O)(=O)C(F)(F)F [AZD4320] + C1CN(CCC1(C(=O)N[C@@H](CCO)C2=CC=C(C=C2)Cl)N)C3=NC=NC4=C3C=CN4 [Capivasertib] (first compound max 1 µM, 7x7, partner max 3 µM)	-0.0402
C[C@@H](c1ccc2nccn2c1)n1nnc2ncc(-c3cnn(C)c3)nc21 [Savolitinib] + CC1(C)CCC(CN2CCN(c3ccc(C(=O)NS(=O)(=O)c4ccc(NCC5CCOCC5)c([N+](=O)[O-])c4)c(Oc4cnc5[nH]ccc5c4)c3)CC2)=C(c2ccc(Cl)cc2)C1 [Venetoclax] (first compound max 1 µM, 7x7, partner max 1 µM)	-0.0899
CS(=O)(=O)CCNCc1ccc(-c2ccc3ncnc(Nc4ccc(OCc5cccc(F)c5)c(Cl)c4)c3c2)o1 [Lapatinib] + C[C@@H](Oc1cc(-c2cnn(C3CCNCC3)c2)cnc1N)c1c(Cl)ccc(F)c1Cl [Crizotinib] (first compound max 10 µM, 7x7, partner max 10 µM)	-0.0917

* * *

Test system: PCI-30 (Head and Neck Carcinoma)
Assay: combination Emax (second highest fraction inhibited in the dose matrix, 72 h); higher = more inhibition; extreme values may be limits of the assay
The entries below are paired with their reported combination Emax.
metric: combination Emax

molecule	study.system	test.value
COc1nnc2ccc(N3CCC(c4ccc(OCCN5CCN(C)C(=O)[C@H]5C)cc4)CC3)nn12 [AZD5153] + Cn1cnc2c(F)c(Nc3ccc(Br)cc3Cl)c(C(=O)NOCCO)cc21 [Selumetinib] (first compound max 1 µM, 7x7, partner max 10 µM)	PCI-30 (Head and Neck Carcinoma)	0.368
CC1(C)CCC(CN2CCN(c3ccc(C(=O)NS(=O)(=O)c4ccc(NCC5CCOCC5)c([N+](=O)[O-])c4)c(Oc4cnc5[nH]ccc5c4)c3)CC2)=C(c2ccc(Cl)cc2)C1 [Venetoclax] + C[C@@H]1COCCN1C2=NC(=NC(=C2)C3(CC3)[S@](=N)(=O)C)C4=C5C=CNC5=NC=C4 [AZD6738] (first compound max 1 µM, 7x7, partner max 10 µM)	PCI-30 (Head and Neck Carcinoma)	0.69

* * *

System: CAPAN-1 (Pancreatic Carcinoma)
Assay: Bliss excess, mean over the matrix (fraction); higher = more synergy

compound	Bliss excess
COc1nnc2ccc(N3CCC(c4ccc(OCCN5CCN(C)C(=O)[C@H]5C)cc4)CC3)nn12 [AZD5153] + Cn1cnc2c(F)c(Nc3ccc(Br)cc3Cl)c(C(=O)NOCCO)cc21 [Selumetinib] (first compound max 1 µM, 7x7, partner max 10 µM)	-0.0226
CN(CCO)CC[C@H](CSc1ccccc1)Nc1ccc(S(=O)(=O)NC(=O)c2ccc(N3CCC([C@@H](O)c4ccccc4-c4ccc(Cl)cc4)CC3)cc2)cc1S(=O)(=O)C(F)(F)F [AZD4320] + C1CN(CCC1(C(=O)N[C@@H](CCO)C2=CC=C(C=C2)Cl)N)C3=NC=NC4=C3C=CN4 [Capivasertib] (first compound max 1 µM, 7x7, partner max 3 µM)	-0.0405
NC1(C(=O)N[C@@H](CCO)c2ccc(Cl)cc2)CCN(c2ncnc3[nH]ccc23)CC1 [Capivasertib] + Cn1cnc2c(F)c(Nc3ccc(Br)cc3Cl)c(C(=O)NOCCO)cc21 [Selumetinib] (first compound max 10 µM, 7x7, partner max 10 µM)	-0.0081
